The origin of these recorded values is PubChem BioAssay AID1454.

Assay: qHTS Assay for Inhibitors of the ERK Signaling Pathway using a Homogeneous Screening Assay; Stimulation with EGF; also: nearly all actives have a fitted effect of over 55% in size
Conditions: HEK293-V1b, EGF-stimulated phospho-ERK AlphaScreen; series mostly up to 57.5 µM
Experimental: NIH Chemical Genomics Center [NCGC] NIH Molecular Libraries Screening Centers Network [MLSCN] Assay Submitter (PI): Dr. Wei Zheng, NCGC/NIH […] HEK293 cells stably expressing type-1 vasopressin receptor (V1b) were maintained in DMEM medium (Invitrogen, Carlsbad, CA) at 37C under a humidified atmosphere containing 5% CO2 and 95% air. […] The ERK phosphorylation in cells was determined using an AlphaScreen assay kit provided by PerkinElmer. […]
In all, about 130,000 compounds went through this assay and about 550 (0.42%) were called active. Not shown: some 4% with an inconclusive outcome. Calls follow the shape of the dose curve; as a rule, active = well fitted inhibition curve with a large enough effect; inconclusive = small, poorly fitted or top-dose-only effect, or effect the other way; inactive = flat fitted curve, though single readings scatter. Many of the other results were omitted from the sample, so actives are more common in it than they were.
Select the matching outcome among active, inactive

Problem: Look up the recorded call for O=c1[nH]c(=O)n(CCc2ccc(F)cc2)c(O)c1/C=N/N1CCCCC1 in this test.
Solution: inactive

Problem: Any idea what this test logged for COc1ccc(-n2c(O)c(C(C)=Nc3ccc4c(c3)CCC4)c(=O)[nH]c2=O)cc1 ?
Solution: inactive

Problem: // outcome(item) with item = CCCCC(=O)N/N=C/c1c(O)n(-c2ccccc2)c(=O)[nH]c1=O
Solution: inactive

Problem: Entry CN1CCN(/N=C/c2c[nH]c3ccccc23)CC1 : call = ?
Solution: inactive

Problem: Hey, what did the test say about CCCCCCCCCCCCn1ccc(=N)cc1 ?
Solution: active

Problem: // outcome(item) with item = O=C1CC(=O)N(Cc2ccccc2)C(=O)N1CCCCCCN1C(=O)CC(=O)N(Cc2ccccc2)C1=O
Solution: inactive

Problem: Assay result, entry O=c1[nH]c(=O)n(-c2ccc(F)cc2)c(O)c1C=NCCN1CCCCC1 — outcome?
Solution: inactive

Problem: Which outcome did this test record for the compound CNC(=O)Nc1ccc(C(O)(C(=O)OC)C(F)(F)F)cc1 (stereo not given) ?
Solution: inactive

Problem: Outcome logged for Cc1cc(-c2n[nH]c(=S)n2-c2ccc(C)c(C)c2)no1 in this assay:
Solution: active

Problem: Short answer needed: outcome of this test for N#Cc1c(Cl)c(Cl)c(Cl)c(C#N)c1Cl ?
Solution: active
